Target: UniProtKB Q9UNQ0
Sequence (Q9UNQ0 whole entry): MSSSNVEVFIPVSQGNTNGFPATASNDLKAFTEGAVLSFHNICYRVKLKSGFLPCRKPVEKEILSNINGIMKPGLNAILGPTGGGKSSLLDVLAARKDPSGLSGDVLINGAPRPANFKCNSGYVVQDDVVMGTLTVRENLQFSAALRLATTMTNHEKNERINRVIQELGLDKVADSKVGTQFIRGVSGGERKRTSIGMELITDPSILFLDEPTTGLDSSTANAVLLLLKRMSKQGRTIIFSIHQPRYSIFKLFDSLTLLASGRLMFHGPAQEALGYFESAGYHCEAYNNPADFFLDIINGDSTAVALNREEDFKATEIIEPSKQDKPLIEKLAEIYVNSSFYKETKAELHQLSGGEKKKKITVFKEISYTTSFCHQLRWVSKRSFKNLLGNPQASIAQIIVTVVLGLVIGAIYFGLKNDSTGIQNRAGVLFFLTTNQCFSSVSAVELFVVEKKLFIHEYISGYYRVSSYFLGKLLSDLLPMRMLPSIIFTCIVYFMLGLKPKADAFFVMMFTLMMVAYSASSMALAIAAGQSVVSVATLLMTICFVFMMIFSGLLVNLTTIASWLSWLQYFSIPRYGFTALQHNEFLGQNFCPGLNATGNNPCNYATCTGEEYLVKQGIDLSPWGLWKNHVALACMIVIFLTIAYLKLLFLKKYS
Test: Uncompetitive inhibition of human ABCG2 transfected in human HEK293 cells assessed as Ki2 for inhibition of mitoxantrone efflux measured after 30 mins by FACS Calibur cytometric analysis
Format: cell-based
endpoint_label: pKi
One number for each entry, as −log10 of the molar value.

[Q] Return reported pKi; argument: COc1cccc(CCn2c3c(c4c(OCCCCOc5cccc6c5c5c(n6CCc6cccc(OC)c6)-c6ccccc6C5=O)cccc42)C(=O)c2ccccc2-3)c1
[A] 7.77

Continue with the next compound.
[Q] Return reported pKi; argument: COc1cccc(CCn2c3c(c4c(OCCCCCCOc5ccc6c(c5)-c5c(c7c(n5CCc5ccccc5)CC(C)CC7=O)C6=O)cccc42)C(=O)c2ccccc2-3)c1 (configuration not stated)
[A] 7.42

* * *

So I've got a bunch of compounds here, and I need their log10 GI50 at 72 h values.
experiment: Growth inhibition of human HEK293 cells after 72 hrs by MTT assay; format: cell-based; conditions: read-out: IG50
Recall that a logarithmic scale is used here: each number is log10 of GI50 at 72 h in µM.

Use the examples below as a reference point.
[Q] Return reported log10 GI50 at 72 h; argument: CC1CC(=O)c2c3c(n(CCc4ccccc4)c2C1)-c1cc(OCCOc2ccc4c(c2)-c2c(c5c(n2CCc2ccccc2)CC(C)CC5=O)C4=O)ccc1C3=O (stereo not drawn)
[A] 2.38

[Q] Return reported log10 GI50 at 72 h; argument: COc1cccc(CCn2c3c(c4c(OCCOc5cccc6c5c5c(n6CCc6cccc(OC)c6)-c6ccccc6C5=O)cccc42)C(=O)c2ccccc2-3)c1
[A] 2.96

Okay, here is my list. What is log10 GI50 at 72 h for each of these?
1. COc1cccc(CCn2c3c(c4c(OCCCCOc5cccc6c5c5c(n6CCc6cccc(OC)c6)-c6ccccc6C5=O)cccc42)C(=O)c2ccccc2-3)c1
2. COc1cccc(CCn2c3c(c4c(OCCCCOc5ccc6c(c5)-c5c(c7c(n5CCc5ccccc5)CC(C)CC7=O)C6=O)cccc42)C(=O)c2ccccc2-3)c1 (stereo not drawn)
3. CC1CC(=O)c2c3c(n(CCc4ccccc4)c2C1)-c1cc(OCCCCOc2ccc4c(c2)-c2c(c5c(n2CCc2ccccc2)CC(C)CC5=O)C4=O)ccc1C3=O (stereo not drawn)
4. COc1cccc(CCn2c3c(c4c(OCCOc5ccc6c(c5)-c5c(c7c(n5CCc5ccccc5)CC(C)CC7=O)C6=O)cccc42)C(=O)c2ccccc2-3)c1 (stereo not drawn)

[A]
[1.90, 2.47, 2.04, 2.34]
